# TESTED_ON: SERT (Homo sapiens)
# Construct: YFP (yellow-fluorescent protein); expressed in transfected cells
# Sequence (P31645 whole entry): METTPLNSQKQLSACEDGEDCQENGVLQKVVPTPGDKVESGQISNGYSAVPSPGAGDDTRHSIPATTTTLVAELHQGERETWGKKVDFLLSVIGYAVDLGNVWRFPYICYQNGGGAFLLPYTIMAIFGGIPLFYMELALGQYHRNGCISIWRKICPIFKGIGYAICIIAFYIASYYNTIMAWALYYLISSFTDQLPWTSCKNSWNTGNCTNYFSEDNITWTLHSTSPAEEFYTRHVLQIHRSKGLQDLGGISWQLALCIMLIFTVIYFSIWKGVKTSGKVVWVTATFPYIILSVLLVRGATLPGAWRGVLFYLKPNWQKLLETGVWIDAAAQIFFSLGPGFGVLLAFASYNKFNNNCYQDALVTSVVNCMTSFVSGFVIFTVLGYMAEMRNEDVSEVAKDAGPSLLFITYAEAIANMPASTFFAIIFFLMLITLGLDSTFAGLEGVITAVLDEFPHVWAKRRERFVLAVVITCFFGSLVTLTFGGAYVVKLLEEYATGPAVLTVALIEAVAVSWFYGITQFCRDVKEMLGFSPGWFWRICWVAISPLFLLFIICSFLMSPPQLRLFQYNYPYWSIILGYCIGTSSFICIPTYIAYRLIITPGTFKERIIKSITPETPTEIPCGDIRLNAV
# ASSAY_PROTOCOL: Radioligand binding, [3H]imipramine displacement
# CONDITION_INFO: 3 nM [3H]imipramine, N ≥ 3; read-out: SERT Ki ± SD
Readings of Ki for the listed molecules
Expressed in µM, but write only the number.

Name the recorded Ki of the item COc1ccc2[nH]cc(CCN3CCCC3)c2c1 in your answer.
3.01

***
Kindly indicate its recorded Ki. Item: CCN(C)CCc1c[nH]c2ccc(OC)cc12
7.71

Identify measured Ki corresponding to C=CCN(C)CCc1c[nH]c2ccc(OC)cc12
4.01

Tell me Ki reported for COc1ccc2[nH]cc(CCNC(C)C)c2c1
8.59

Quickly give me recorded Ki for COc1ccc2[nH]cc(CCN(C)C(C)C)c2c1
2.87

For the molecule CCN(CC)CCc1c[nH]c2ccc(OC)cc12 , give its reported Ki.
10.4

Output Ki of CCN(CCc1c[nH]c2ccc(OC)cc12)C(C)C
1.78

Identify measured Ki corresponding to C=CCN(CC=C)CCc1c[nH]c2ccc(OC)cc12
1.19

====

# TESTED_ON: SERT (Homo sapiens)
# Construct: YFP (yellow-fluorescent protein); expressed in transfected cells
# ASSAY_PROTOCOL: Whole-cell patch clamp, transporter-mediated currents in HEK293 cells
# Format: cell-based
# CONDITION_INFO: normalized to current elicited by 5-HT 10 µM
The entries below come with measured SERT-mediated inward current Emax values attached.
In your answer, state the number alone without any accompanying words.

Quick one: give measured SERT-mediated inward current Emax for CCN(C)CCc1c[nH]c2ccc(OC)cc12
0.46

Specify measured SERT-mediated inward current Emax for COc1ccc2[nH]cc(CCN3CCCC3)c2c1 .
0.49

Give SERT-mediated inward current Emax for the following compound: COc1ccc2[nH]cc(CCN(C)C)c2c1
0.41

---
Please list SERT-mediated inward current Emax recorded for the compound CCN(CC)CCc1c[nH]c2ccc(OC)cc12
0.26

====

# TESTED_ON: h5-HT1AR (Homo sapiens, UniProt P08908)
# Construct: purchased Perkin Elmer, Inc. (Waltham, MA, USA)
# Sequence (P08908 1-422): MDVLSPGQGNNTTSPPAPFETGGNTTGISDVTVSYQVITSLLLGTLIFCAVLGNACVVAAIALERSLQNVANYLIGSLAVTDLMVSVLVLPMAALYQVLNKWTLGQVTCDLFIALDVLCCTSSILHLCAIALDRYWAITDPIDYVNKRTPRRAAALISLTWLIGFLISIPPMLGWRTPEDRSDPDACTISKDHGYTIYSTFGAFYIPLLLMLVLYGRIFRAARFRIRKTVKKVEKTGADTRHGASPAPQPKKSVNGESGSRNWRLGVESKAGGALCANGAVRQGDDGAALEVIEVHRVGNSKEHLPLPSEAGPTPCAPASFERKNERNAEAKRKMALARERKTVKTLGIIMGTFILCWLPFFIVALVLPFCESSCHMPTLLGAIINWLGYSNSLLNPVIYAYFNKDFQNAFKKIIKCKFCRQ
# ASSAY_PROTOCOL: Radioligand binding, [3H]8-OH-DPAT displacement
QUANTITY_NAME: Ki (nM)
# number only, unit nM dropped from output

Give reported Ki value for COc1ccc2[nH]cc(CCN(C(C)C)C(C)C)c2c1 [5-MeO-DIPT, 5-methoxy-N,N-diisopropyltryptamine]
15.8
